measurement-description: an = ratio of the nth substance listed
condition-set: 318.15 K; 101 kPa; Liquid; Sing-around technique in a fixed-path interferometer; a2 = 3
measure-name: speed of sound (m/s)
Numeric answer only, unit m/s assumed.

Value of measured speed of sound for the entry CCC[N+](CCC)(CCC)Cc1ccccc1.[Cl-] [benzyltripropylammonium chloride] + OCCO : 1686.4

Value of measured speed of sound for the entry CCC[N+](CCC)(CCC)Cc1ccccc1.[Cl-] [benzyltripropylammonium chloride] + Oc1ccccc1 : 1611.9

Value of measured speed of sound for the entry CCC[N+](CCC)(CCC)Cc1ccccc1.[Cl-] [benzyltripropylammonium chloride] + CC(O)C(=O)O : 1577.6

Value of measured speed of sound for the entry CCC[N+](CCC)(CCC)Cc1ccccc1.[Cl-] [benzyltripropylammonium chloride] + OCC(O)CO : 1790.1

----------
Would you mind telling me the reported speed of sound of each entry?
measurement-description: an = ratio of the nth substance listed
condition-set: 298.15 K; 101 kPa; Liquid; Sing-around technique in a fixed-path interferometer; a2 = 3
Numeric answer only, unit m/s assumed.

Value of measured speed of sound for the entry CCC[N+](CCC)(CCC)Cc1ccccc1.[Cl-] [benzyltripropylammonium chloride] + Oc1ccccc1 : 1679.8

Value of measured speed of sound for the entry CCC[N+](CCC)(CCC)Cc1ccccc1.[Cl-] [benzyltripropylammonium chloride] + CC(O)C(=O)O : 1640.8

Value of measured speed of sound for the entry CCC[N+](CCC)(CCC)Cc1ccccc1.[Cl-] [benzyltripropylammonium chloride] + OCC(O)CO : 1868.9

Value of measured speed of sound for the entry CCC[N+](CCC)(CCC)Cc1ccccc1.[Cl-] [benzyltripropylammonium chloride] + OCCO : 1746.5

----------
Would you mind telling me the reported mass density of each entry?
measurement-description: an = ratio of the nth substance listed
condition-set: 323.15 K; 101 kPa; Liquid; Vibrating tube method; a2 = 3
± gives the expanded uncertainty stated by the source.

Value of measured mass density for the entry CCC[N+](CCC)(CCC)Cc1ccccc1.[Cl-] [benzyltripropylammonium chloride] + Oc1ccccc1 : 1040.64 ± 0.92 kg/m3

Value of measured mass density for the entry CCC[N+](CCC)(CCC)Cc1ccccc1.[Cl-] [benzyltripropylammonium chloride] + OCC(O)CO : 1114.45 ± 0.84 kg/m3

Value of measured mass density for the entry CCC[N+](CCC)(CCC)Cc1ccccc1.[Cl-] [benzyltripropylammonium chloride] + CC(O)C(=O)O : 1099.19 ± 11 kg/m3

Value of measured mass density for the entry CCC[N+](CCC)(CCC)Cc1ccccc1.[Cl-] [benzyltripropylammonium chloride] + OCCO : 1045.19 ± 0.93 kg/m3

----------
Would you mind telling me the reported refractive index of each entry?
measurement-description: refractive index (Na D-line) (dimensionless); an = ratio of the nth substance listed
condition-set: 333.15 K; 101 kPa; Liquid; Standard Abbe refractometry; a2 = 3
Could you respond with only the numeric value?

Value of measured refractive index for the entry CCC[N+](CCC)(CCC)Cc1ccccc1.[Cl-] [benzyltripropylammonium chloride] + CC(O)C(=O)O : 1.4811

Value of measured refractive index for the entry CCC[N+](CCC)(CCC)Cc1ccccc1.[Cl-] [benzyltripropylammonium chloride] + Oc1ccccc1 : 1.5352

Value of measured refractive index for the entry CCC[N+](CCC)(CCC)Cc1ccccc1.[Cl-] [benzyltripropylammonium chloride] + OCCO : 1.4864

Value of measured refractive index for the entry CCC[N+](CCC)(CCC)Cc1ccccc1.[Cl-] [benzyltripropylammonium chloride] + OCC(O)CO : 1.4936

# credit: the NIST ThermoML archive (doi:10.1016/j.fluid.2017.03.011)
